molecular target: CCDC6-RET fusion (Homo sapiens, UniProt P07949+Q16204+Q96SW2); construct: CCDC6 (N-terminal fusion partner from the natural gene rearrangement, Q16204); endogenous in cells; host or cells: TPC-1 (parental) papillary thyroid carcinoma cells; experiment: Cellular RET degradation assay (AlphaLISA Surefire Ultra, TPC-1 cells); assay type: cell-based; settings: half-maximal degradation concentration (DC50); parental TPC-1/CCDC6-RET cell line; 24 hrs compound treatment; AlphaLISA luminescence; read-out: Cell Density TPC-1/CCDC6-RET IC50
Sequence (Q16204+P07949 fused): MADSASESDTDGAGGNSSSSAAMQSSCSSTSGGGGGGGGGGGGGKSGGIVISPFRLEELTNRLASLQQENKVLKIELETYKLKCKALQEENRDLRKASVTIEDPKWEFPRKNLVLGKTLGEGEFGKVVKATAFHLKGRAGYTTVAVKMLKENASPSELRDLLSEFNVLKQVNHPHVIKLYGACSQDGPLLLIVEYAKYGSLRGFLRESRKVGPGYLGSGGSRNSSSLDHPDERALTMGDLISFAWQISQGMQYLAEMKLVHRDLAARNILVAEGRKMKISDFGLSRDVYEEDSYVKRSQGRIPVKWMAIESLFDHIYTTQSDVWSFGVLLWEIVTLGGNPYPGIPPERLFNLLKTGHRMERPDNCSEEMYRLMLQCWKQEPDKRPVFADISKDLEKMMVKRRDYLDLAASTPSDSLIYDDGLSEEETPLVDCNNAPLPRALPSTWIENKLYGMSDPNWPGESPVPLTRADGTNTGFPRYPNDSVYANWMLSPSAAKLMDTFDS
Sequence (Q96SW2 whole entry, the tested form may be a part): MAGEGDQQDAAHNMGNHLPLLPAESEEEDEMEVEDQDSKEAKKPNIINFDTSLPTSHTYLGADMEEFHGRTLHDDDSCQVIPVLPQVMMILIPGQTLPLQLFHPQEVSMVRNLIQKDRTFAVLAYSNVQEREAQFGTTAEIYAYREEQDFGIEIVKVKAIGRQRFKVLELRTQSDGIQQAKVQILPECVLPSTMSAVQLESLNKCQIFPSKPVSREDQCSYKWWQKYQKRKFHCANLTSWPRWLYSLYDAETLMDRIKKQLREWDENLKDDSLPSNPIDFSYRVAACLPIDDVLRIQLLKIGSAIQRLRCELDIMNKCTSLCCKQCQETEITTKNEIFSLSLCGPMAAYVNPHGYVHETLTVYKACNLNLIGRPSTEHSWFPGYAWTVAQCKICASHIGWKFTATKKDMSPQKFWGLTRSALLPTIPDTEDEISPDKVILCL
experimental.readout: DC50 (nM)

Nc1ncnc2c1c(-c1noc(C3CC3)c1-c1ccccn1)nn2[C@H]1C[C@H](C(=O)NCCCCCCN2CCC(c3ccc4c(c3)C(=O)N(C3CCC(=O)NC3=O)C4)CC2)C1 (stereo partly drawn) [Example A9]    22

[a] Nc1ncnc2c1c(-c1noc(C3CC3)c1-c1ccccn1)nn2[C@H]1C[C@H](C(=O)NCCCCN2CCN(c3ccc4c(c3)C(=O)N(C3CCC(=O)NC3=O)C4)CC2)C1 (stereo partly drawn) [Example A6]
[b] CC(C)n1nc(-c2noc(C3CC3)c2C2CCN(C(=O)CCCCCCN3CCN(c4ccc5c(c4)C(=O)N(C4CCC(=O)NC4=O)C5)CC3)CC2)c2c(N)ncnc21 (stereo not drawn) [Example A19]
Given a and given b , which shows the smaller recorded DC50? Answer by stating the label of the chosen item.
a
